Test: recombinant barcode read abundance after kanamycin selection (control-corrected) (log10(CPM+1)); higher = more efficient recombination; sequences stand for … in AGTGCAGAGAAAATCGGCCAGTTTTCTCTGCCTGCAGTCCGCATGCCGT…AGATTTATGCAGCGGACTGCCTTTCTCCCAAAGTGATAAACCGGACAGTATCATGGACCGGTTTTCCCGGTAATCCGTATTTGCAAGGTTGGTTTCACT; site = the 11-nt target;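 note: IS621 recombinase and bridge RNA in Escherichia coli cells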
Listing of entries alongside the reported recombinant barcode read abundance (log10).
The answer should be a number; do not append a unit.

Consider the reported recombinant barcode read abundance (log10) for these sequences:
[[record]]
primary_sequence = "ACAGGTACTTGGGTTCTAACCTGTTGCCT (site GCAGGTACTAG)"
readout_value = 0.0917

[[record]]
primary_sequence = "CTAAGTACTTGGGTTCTAACCTGTTGCAG (site CTAAGTACTCT)"
readout_value = 1.56

[[record]]
primary_sequence = "CGGCGTGCTTGGGTTCTAACCTGTTGCCT (site CAGCGTGCTAG)"
readout_value = 0.555

[[record]]
primary_sequence = "CCGTGAACTTGGGTTCTAACCTGTTGCCT (site CGGTGAACTAG)"
readout_value = 0.0382


Which recombinant barcode read abundance (log10) value belongs to CAGCATACTTGGGTTCTAACCTGTTGCCT (site CCGCATACTAG) ? 0.159

Returns the measured recombinant barcode read abundance (log10) for the input sequence. Input: ACGACGTCTTGGGTTCTAACCTGTTGCTT (site TCGACGCCTAA) 0.08

Request the reported recombinant barcode read abundance (log10) associated with ATCGGAGCTTGGGTTCTAACCTGTTGCAG (site ATCGGAGCTCA) 0.504

Look up recombinant barcode read abundance (log10) for this sequence: ACGCTAGCTTGGGTTCTAACCTGTTGCCT (site GCGCTAGCTAG) 0.226

Sourced from the supplement of paper PMC11208160
